Hi there, I'd appreciate the recorded SD50 for every entry that follows.
- Test system: Plasmodium berghei
- Assay Info: Antimalarial activity against Plasmodium berghei […] after subcutaneous dose
- Type: functional
Give bare numbers, in mg/kg/day.

Provide SD50 values for the following items, in order.
1. C[C@@H]1CCC2[C@@H](C)[C@@H](OCCNCCO)O[C@@H]3O[C@@]4(C)CCC1[C@@]23OO4.O=C(O)/C=C\C(=O)O (some centres undefined)
2. C[C@@H]1CCC2[C@@H](C)[C@@H](OCCCN3CCOCC3)O[C@@H]3O[C@@]4(C)CCC1[C@@]23OO4.O=C(O)/C=C\C(=O)O (some centres undefined)
3. C[C@@H]1CCC2[C@@H](C)[C@@H](OCCN(C)C)O[C@@H]3O[C@@]4(C)CCC1[C@@]23OO4.O=C(O)C(=O)O (some centres undefined)
4. CCN(CC)CCO[C@H]1O[C@@H]2O[C@@]3(C)CCC4[C@H](C)CCC([C@H]1C)[C@]42OO3.O=C(O)C(=O)O (some centres undefined)

[out]
[27.66, 5.57, 24.57, 24.57]

---

- Tested on: Monkey
- Assay Info: Time of clearance after oral administration on Plasmodium knowlesi in rhesus monkeys (7-day treatment)
- Format: functional, Cercopithecidae
Provide the reported Parasite_Clearance_time of each item.
Give bare numbers, in h.

1) C[C@@H]1CCC2[C@@H](C)[C@@H](OCCN(C)C)O[C@@H]3O[C@@]4(C)CCC1[C@@]23OO4.O=C(O)C(=O)O (some centres undefined) :: 44

Working through the 2 molecules below one at a time, give Parasite_Clearance_time for each.
1. C[C@@H]1CCC2[C@@H](C)[C@@H](OCCNCCO)O[C@@H]3O[C@@]4(C)CCC1[C@@]23OO4.O=C(O)/C=C\C(=O)O (some centres undefined)
2. CCN(CC)CCO[C@H]1O[C@@H]2O[C@@]3(C)CCC4[C@H](C)CCC([C@H]1C)[C@]42OO3.O=C(O)C(=O)O (some centres undefined)

[out]
52
52

[in] Would you mind telling me what Parasite_Clearance_time value was observed for C[C@@H]1CCC2[C@@H](C)[C@@H](OCCCN3CCOCC3)O[C@@H]3O[C@@]4(C)CCC1[C@@]23OO4.O=C(O)/C=C\C(=O)O (some centres undefined) ?
[out] 40
